Answer each item with its documented IC50, inhibition of SCF-dependent proliferation of TF-1 cells (CellTiter-Glo), Average.
Target: CD117 on wild-type cells (TF-1 cells, HSPCs, HSCs) (human, UniProt P10721 26-976)
Sequence (P10721 26-976 limits assumed): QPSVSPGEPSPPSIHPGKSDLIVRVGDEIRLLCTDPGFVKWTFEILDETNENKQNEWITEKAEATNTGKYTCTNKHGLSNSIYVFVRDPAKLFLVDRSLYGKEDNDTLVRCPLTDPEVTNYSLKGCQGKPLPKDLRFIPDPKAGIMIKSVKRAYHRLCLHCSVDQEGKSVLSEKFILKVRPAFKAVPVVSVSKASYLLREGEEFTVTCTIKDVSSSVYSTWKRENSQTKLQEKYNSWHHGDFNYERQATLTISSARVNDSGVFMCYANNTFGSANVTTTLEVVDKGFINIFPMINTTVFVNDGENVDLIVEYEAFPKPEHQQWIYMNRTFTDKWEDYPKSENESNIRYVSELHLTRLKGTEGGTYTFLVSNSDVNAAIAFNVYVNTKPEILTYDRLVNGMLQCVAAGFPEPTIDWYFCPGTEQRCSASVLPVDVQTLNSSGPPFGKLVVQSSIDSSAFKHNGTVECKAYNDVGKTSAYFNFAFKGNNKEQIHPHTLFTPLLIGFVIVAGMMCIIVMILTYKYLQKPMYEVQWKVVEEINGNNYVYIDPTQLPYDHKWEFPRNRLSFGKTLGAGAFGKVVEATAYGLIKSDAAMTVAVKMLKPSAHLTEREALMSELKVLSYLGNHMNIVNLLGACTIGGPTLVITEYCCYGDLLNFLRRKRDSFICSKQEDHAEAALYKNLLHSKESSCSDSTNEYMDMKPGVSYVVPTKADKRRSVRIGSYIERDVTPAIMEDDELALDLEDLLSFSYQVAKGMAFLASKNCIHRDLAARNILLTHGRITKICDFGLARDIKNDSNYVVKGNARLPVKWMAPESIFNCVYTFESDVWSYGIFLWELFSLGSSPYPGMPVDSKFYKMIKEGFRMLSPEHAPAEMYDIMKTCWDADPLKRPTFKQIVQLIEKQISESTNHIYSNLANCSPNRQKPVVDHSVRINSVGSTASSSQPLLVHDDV
Assay: cell-based or functional assay

Piz Bernina (antibody, V domains shown, IgG; also called VH1/VL1.17) VH: QVQLVQSGAEVKKPGASVKVSCKASGYTFTSYNMHWVRQAPGQGLEWMGVIYSGNGDTSYNQKFKGRVTMTTDTSTSTAYMELRSLTSDDTAVYYCARERDTRFGNWGQGTLVTVSA VL: EIVLTQSPSSLSASVGDRVTITCRASESVDIYGESFMHWYQQKPGKAPKLLIYLASNLESGVPSRFSGSGSGTDFTLTISSLQPEDFATYYCQQNNEEPYTFGQGTKLEIKR :: 0.0176 µg/mL

# batch size: 2; output IC50, inhibition of SCF-dependent proliferation of TF-1 cells (CellTiter-Glo), Average per entry
1. Piz Argient (antibody, V domains shown, IgG; also called VH1/VL1.27) VH: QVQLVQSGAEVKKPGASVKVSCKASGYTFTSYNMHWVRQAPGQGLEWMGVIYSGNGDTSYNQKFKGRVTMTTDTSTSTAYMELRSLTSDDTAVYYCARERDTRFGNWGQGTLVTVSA VL: EIVLTQSPSSLSASVGDRVTITCRASESVDIYGHSFMHWYQQKPGKAPKLLIYLASNLESGVPSRFSGSGSGTDFTLTISSLQPEDFATYYCQQNKEEPYTFGQGTKLEIKR
2. Piz Zupo (antibody, V domains shown, IgG; also called VH1/VL1.25) VH: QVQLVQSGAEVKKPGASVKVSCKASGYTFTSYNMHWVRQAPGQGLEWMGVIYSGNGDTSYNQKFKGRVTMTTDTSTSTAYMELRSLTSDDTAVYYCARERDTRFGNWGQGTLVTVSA VL: EIVLTQSPSSLSASVGDRVTITCRASESVDIYGQSFMHWYQQKPGKAPKLLIYLASNLESGVPSRFSGSGSGTDFTLTISSLQPEDFATYYCQQNKEEPYTFGQGTKLEIKR

1. > 0.5 µg/mL
2. > 0.5 µg/mL
